ASSAY_SYSTEM: T1, Cynomolgus CD3εδ Fc heterodimer (Cy CD3ε Fc / CD3δ Fc-HIS) (cynomolgus, UniProt Q95LI8 22-100)
T1 chain 1: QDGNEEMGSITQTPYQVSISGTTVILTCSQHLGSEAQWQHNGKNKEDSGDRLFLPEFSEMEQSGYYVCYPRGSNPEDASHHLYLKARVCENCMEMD
T1 chain 2: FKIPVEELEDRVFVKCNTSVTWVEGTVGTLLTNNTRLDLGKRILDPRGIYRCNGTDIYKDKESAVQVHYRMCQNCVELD
EXPERIMENT: BLI (Octet), IgG on AHC sensor, pH 6.0
Listed here: items and their measured koff.
REPORTED_PROPERTY: koff

SAD10319_P05_C05 (ADI-57405) (antibody, V domains shown, IgG; also called Ab132) VH: QVQLVQSGAEVKKPGASVKVSCKASGYTFTSYNMHWVRQAPGPRLEWMGWIDAGTGATHYSQKFQGRVTITRDTSASTAYMELSSLRSEDTAVYYCARDAYHHYFYDVWGQGTLVTVSS VL: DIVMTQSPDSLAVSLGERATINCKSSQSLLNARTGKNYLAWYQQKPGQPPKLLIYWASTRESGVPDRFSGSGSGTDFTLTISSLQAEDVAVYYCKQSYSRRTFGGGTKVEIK | 0.00821 s⁻¹
SAD10318_P04_D10 (ADI-48613) (antibody, V domains shown, IgG; also called Ab211) VH: QVQLVQSGAEVKKPGASVKVSCKASGFNIKDYYMHWVRQAPGQRLEWMGWIDLENANTIYDAKFQGRVTITRDTSASTAYMELSSLRSEDTAVYYCARDAYGHYHYDVWGQGTLVTVSS VL: DIVMTQSPDSLAVSLGERATINCKSSQSLLHARTGKNHLAWYQQKPGQPPKLLIYWASTRESGVPDRFSGSGSGTDFTLTISSLQAEDVAVYYCKQSYSRRTFGGGTKVEIK | 0.00251 s⁻¹
SAD10320_P04_A12 (ADI-57391) (antibody, V domains shown, IgG; also called Ab117) VH: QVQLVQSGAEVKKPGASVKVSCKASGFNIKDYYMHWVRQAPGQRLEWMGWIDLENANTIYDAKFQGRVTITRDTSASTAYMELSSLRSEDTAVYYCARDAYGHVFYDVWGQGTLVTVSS VL: DIVMTQSPDSLAVSLGERATINCKSSQSLLNARTGKNYLAWYQQKPGQPPKLLIYWASTRESGVPDRFSGSGSGTDFTLTISSLQAEDVAVYYCKQSYHHRTFGGGTKVEIK | 0.0168 s⁻¹
SAD10319_P06_G11 (ADI-57432) (antibody, V domains shown, IgG; also called Ab162) VH: QVQLVQSGAEVKKPGASVKVSCKASGYTFTDYDMHWVRQAPGQRLEWMGWINAGDAATVYSQKFQGRVTITRDTSASTAYMELSSLRSEDTAVYYCARDAYGHYFYDHWGQGTLVTVSS VL: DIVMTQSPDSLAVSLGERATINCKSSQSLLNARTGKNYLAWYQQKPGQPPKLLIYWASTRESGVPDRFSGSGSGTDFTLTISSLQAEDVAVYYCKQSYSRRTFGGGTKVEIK | 0.00924 s⁻¹
SAD10319_P02_H06 (ADI-48633) (antibody, V domains shown, IgG; also called Ab16) VH: QVQLVQSGAEVKKPGASVKVSCKASGYTFTAYVMHWVRQAPGQRLEWMGSIDAGTGNTKYSQKFQGRVTITRDTSASTAYMELSSLRSEDTAVYYCARDAYGHYFYDHWGQGTLVTVSS VL: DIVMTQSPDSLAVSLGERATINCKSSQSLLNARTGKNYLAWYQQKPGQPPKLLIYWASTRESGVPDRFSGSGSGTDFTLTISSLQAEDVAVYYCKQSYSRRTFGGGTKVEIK | 0.0188 s⁻¹
